# experimentalDetails: Efflux ratio of apparent permeability from basolateral to apical side to apical to basolateral of human Caco2 cells
# Format: ADME, cell-based
# testSettings: Caco-2

{"columns": ["structureSmilesString", "efflux ratio"],
 "data": [
  ["COc1ncc(-c2cnc3nc(N)nc(C)c3c2)cc1NS(=O)(=O)c1ccc(C#N)cc1", 13.5]
]}

* * *

Measured IC50 (Serine/threonine-protein kinase mTOR (Homo sapiens))

{"columns": ["structureSmilesString", "IC50 (µM)"],
 "data": [
  ["COc1ccc(S(=O)(=O)Nc2cc(-c3cnc4nc(N)nc(C)c4c3)cnc2OC)cc1", 0.18],
  ["COc1ncc(-c2cnc3nc(N)nc(C)c3c2)cc1NS(=O)(=O)c1ccccc1", 0.0792],
  ["COc1ncc(-c2cnc3nc(N)nc(C)c3c2)cc1NS(=O)(=O)c1cccnc1", 0.111],
  ["COc1ncc(-c2cnc3nc(N)nc(C)c3c2)cc1NS(=O)(=O)c1cccs1", 0.245]
]}
